target: Ubiquitin-conjugating enzyme E2 N (Homo sapiens); assay type: functional;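 note: Dose-response confirmation in a TR-FRET assay detecting UBC13-driven polyubiquitin chain formation, inhibition measured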
Sequence (P61088 whole entry): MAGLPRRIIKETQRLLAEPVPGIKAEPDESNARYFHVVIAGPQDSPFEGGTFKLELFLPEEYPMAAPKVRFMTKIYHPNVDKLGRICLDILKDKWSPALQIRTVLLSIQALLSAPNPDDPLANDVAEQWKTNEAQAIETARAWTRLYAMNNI
The source made the active and inactive calls.
Bench note: report the call from t (active), f (inactive)

CCCCCCCCCCCCC/C=C/[C@@H](O)[C@@H](N)CO ... t

Would you mind telling me which call this test gave CCCCCc1cc(=O)oc2c(C(CCN3CCCC(C)C3)c3ccc(OC)cc3)c(OC)cc(OC)c12 (configuration not stated) ? f

Would you mind telling me which call this test gave CCN(CC)CCOC(=O)c1ccc(NC(=O)c2cn(-c3ccccc3)nc2-c2cccs2)cc1 ? t

Would you mind telling me which call this test gave CCOC(=O)C1=C(COC(=O)c2ncc(Cl)c(Cl)c2Cl)NC(=O)NC1C (configuration not stated) ? t

---

Quick note: these are AC50 numbers for system: Cytochrome P450 3A4 (Homo sapiens);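 note: CYP3A4 tested as one member of a cytochrome P450 panel screen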
Sequence (P08684 whole entry): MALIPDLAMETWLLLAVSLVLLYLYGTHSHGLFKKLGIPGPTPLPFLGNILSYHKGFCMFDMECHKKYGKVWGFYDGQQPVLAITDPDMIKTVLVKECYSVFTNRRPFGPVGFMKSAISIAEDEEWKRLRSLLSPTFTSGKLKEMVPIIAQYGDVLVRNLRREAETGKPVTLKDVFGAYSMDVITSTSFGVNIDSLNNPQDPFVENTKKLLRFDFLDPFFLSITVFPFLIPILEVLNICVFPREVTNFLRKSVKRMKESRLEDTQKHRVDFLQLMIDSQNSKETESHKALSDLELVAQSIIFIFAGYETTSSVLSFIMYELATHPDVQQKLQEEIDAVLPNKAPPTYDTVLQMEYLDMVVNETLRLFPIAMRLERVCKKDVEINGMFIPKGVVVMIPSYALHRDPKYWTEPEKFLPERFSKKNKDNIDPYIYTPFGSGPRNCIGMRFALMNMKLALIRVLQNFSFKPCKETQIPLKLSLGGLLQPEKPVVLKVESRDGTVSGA

Consider the reported AC50 for these molecules:
CCOC(=O)Cn1nc(C)n(-c2ccc(C)cc2)c1=O ... inconclusive
COC(=O)c1cc(C(=O)c2ccc(Cl)cc2Cl)cn1C ... inconclusive
CCOC(=O)N1CCN(C(=O)c2ccc3nc(N4CCC(C)CC4)sc3c2)CC1 ... inconclusive
C/C=C\C(=O)N(CC)c1ccccc1C ... inconclusive

Now look at this entry.
Item COc1ccc(NC(=O)CCNS(=O)(=O)c2ccc3c(c2)c(=O)n(C)c(=O)n3C)cc1 with Cytochrome P450 3A4 (Homo sapiens) - AC50? inconclusive

---

biological target: 72 kDa type IV collagenase (Homo sapiens, UniProt P08253); assay: Dose Response validation of uHTS RPN11 inhibitor hits using a MMP-2 Fluorescence assay.; assay type: functional
Sequence (P08253 whole entry): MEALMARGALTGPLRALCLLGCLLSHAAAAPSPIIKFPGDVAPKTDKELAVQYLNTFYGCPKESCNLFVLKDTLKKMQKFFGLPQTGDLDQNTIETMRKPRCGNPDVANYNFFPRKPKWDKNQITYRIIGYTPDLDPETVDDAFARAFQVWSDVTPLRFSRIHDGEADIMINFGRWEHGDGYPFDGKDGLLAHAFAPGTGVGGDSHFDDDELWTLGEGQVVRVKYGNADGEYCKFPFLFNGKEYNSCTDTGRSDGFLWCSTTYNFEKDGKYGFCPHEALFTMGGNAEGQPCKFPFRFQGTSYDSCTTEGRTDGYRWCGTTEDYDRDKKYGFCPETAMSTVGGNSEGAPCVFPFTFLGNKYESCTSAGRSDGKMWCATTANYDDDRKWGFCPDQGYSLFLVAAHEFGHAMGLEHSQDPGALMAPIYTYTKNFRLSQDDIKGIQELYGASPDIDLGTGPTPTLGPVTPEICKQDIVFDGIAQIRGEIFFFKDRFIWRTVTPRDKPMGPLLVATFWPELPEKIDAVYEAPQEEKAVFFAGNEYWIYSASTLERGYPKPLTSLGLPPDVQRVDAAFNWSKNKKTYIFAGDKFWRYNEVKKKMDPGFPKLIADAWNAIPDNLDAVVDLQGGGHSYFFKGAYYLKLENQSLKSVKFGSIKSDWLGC
The source made the active and inactive calls.
Bench note: report the call from 1.0 = active, 0.0 = inactive

Would you mind telling me which call this test gave CC(C(=O)Nc1ccc(C(=O)O)c(O)c1)N1C(=O)/C(=C\c2ccco2)SC1=S (centres undefined) ? 1.0

Would you mind telling me which call this test gave COc1cc(/C=C2\N=C3CCCCCN3C2=O)ccc1O ? 0.0

Would you mind telling me which call this test gave CCOC(=O)c1sc2nc3c(SCC(=O)O)cc(C(=O)c4ccccc4O)cn3c(=O)c2c1C ? 1.0

Would you mind telling me which call this test gave CCOC(=O)C1CCN(C(=O)CCc2nc3sc4c(c3c(=O)[nH]2)CCCC4)CC1 ? 0.0

---

target: Streptokinase A (Streptococcus pyogenes serotype M1); test: viability-normalized secreted streptokinase activity reduction – plasminogen activation absorbance, OD405, dose response (AID 1914); format: functional, Streptococcus pyogenes M1 GAS;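 note: secreted streptokinase activity via plasminogen activation per viability signal from cell pellet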
Sequence (P10520 whole entry): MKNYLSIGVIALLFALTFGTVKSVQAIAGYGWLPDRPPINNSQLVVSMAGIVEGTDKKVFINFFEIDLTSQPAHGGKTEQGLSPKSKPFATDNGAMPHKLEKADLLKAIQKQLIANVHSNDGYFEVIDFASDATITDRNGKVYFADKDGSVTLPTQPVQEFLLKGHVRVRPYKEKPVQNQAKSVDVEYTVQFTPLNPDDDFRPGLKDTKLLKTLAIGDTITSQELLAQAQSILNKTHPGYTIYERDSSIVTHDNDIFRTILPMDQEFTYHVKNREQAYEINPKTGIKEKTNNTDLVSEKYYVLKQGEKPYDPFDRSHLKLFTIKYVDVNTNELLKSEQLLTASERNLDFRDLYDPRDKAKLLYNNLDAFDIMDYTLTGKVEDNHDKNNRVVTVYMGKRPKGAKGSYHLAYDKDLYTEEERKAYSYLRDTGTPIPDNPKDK
Activity calls are given as the source filed them.
MEASUREMENT KIND: EC50

Consider the reported EC50 for these molecules:
CC(C)C1OC2c3cccc4cccc(c34)C2N1c1ccccc1 (stereo not drawn) ... 2.61 µM (active)
CC(C)(C)N/N=C1\CC(c2ccccc2)Oc2ccccc21 (stereo not drawn) ... 7.08 µM (active)

Data request, read-out EC50, for O=C(Oc1ccc(/N=C2\C(=O)c3ccccc3C(O)=C2Cl)cc1)c1ccc([N+](=O)[O-])cc1 > 150 µM (not active)

---

Biological target: Short transient receptor potential channel 4 (Mus musculus, UniProt Q9QUQ5)
Sequence (Q9QUQ5 whole entry): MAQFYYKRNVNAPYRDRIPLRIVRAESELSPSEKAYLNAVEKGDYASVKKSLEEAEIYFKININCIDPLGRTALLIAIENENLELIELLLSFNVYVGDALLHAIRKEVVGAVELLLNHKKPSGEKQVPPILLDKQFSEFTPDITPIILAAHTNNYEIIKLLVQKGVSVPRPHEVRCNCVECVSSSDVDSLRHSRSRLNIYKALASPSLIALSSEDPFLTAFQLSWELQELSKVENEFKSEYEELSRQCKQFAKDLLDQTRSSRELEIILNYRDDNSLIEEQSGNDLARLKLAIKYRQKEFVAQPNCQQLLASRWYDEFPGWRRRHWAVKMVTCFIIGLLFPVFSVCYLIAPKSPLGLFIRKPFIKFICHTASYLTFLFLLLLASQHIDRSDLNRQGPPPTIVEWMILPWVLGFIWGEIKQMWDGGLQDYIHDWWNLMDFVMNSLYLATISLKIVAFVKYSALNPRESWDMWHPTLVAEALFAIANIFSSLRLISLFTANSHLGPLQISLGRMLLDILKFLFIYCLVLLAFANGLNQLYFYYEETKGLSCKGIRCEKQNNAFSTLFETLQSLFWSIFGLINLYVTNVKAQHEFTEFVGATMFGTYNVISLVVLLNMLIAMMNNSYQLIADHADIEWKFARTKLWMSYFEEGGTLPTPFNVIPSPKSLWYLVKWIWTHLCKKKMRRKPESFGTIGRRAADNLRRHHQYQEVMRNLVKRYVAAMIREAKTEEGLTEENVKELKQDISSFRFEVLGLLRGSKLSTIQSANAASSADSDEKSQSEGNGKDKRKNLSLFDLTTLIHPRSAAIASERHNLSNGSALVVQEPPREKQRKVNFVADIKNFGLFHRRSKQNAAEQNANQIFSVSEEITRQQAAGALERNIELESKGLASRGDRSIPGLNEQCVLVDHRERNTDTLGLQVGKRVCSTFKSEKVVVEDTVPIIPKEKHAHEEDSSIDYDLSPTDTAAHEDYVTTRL
Test: block of DAMGO-driven TRPC4 calcium entry – cell-based, HEK293 TRPC4/mu-opioid, Fluo-4 calcium, dose response (AID 434942);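 note: potency of inhibitors blocking the TRPC4 calcium response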
Type: functional
Activity calls are given as the source filed them.
MEASUREMENT KIND: EC50

Consider the reported EC50 for these molecules:
CC(C)N=C(S)N1CCN(C/C=C/c2ccccc2)CC1 ... 4.73 µM (active)
Cc1c(CCOC(=O)c2cccc([N+](=O)[O-])c2)sc[n+]1CC(=O)c1ccccc1 ... 6.68 µM (active)
COc1ccc(C(CNC(=O)c2oc3ccc(F)cc3c2C)N2CCCCC2)cc1 (centres undefined) ... 1.88 µM (active)

Now look at this entry.
Data request, read-out EC50, for CC1(c2ccccc2)CC(C)(C)N(C(=O)C2CCCO2)c2ccccc21 (centres undefined) 3.76 µM (active)

---

target: 26S proteasome non-ATPase regulatory subunit 14 (Homo sapiens); assay: inhibition of proteasome subunit RPN11 – biochemical, fluorescence polarization, uHTS hits, confirmation (AID 602368); type: functional
Sequence (O00487 whole entry): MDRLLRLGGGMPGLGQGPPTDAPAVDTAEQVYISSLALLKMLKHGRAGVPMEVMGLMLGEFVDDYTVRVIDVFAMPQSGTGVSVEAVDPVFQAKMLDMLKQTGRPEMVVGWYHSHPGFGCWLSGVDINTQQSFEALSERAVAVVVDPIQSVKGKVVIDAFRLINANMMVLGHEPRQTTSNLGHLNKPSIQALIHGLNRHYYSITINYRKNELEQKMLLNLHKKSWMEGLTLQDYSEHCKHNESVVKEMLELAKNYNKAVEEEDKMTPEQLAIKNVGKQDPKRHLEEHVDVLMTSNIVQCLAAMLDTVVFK
Activity calls are given as the source filed them.
Measured IC50, listed per entry for reference.

Consider the reported IC50 for these compounds:
COc1cc(/C=C2\N=C3CCCCCN3C2=O)ccc1O ... 14.8 µM (active)
CCOC(=O)c1sc2nc3c(SCC(=O)O)cc(C(=O)c4ccccc4O)cn3c(=O)c2c1C ... 6.79 µM (active)
O=C(Nc1ccc(F)cc1)Nc1nnc(-c2ccncc2)s1 ... 23.2 µM (active)

Now look at this entry.
Item CC(=O)C1=C(O)C(=CC=Cc2ccccc2)OC1=O with 26S proteasome non-ATPase regulatory subunit 14 (Homo sapiens) - IC50? 35.2 µM (active)

---

Measured IC50, listed per entry for reference.
molecular target: Carboxy-terminal domain RNA polymerase II polypeptide A small phosphatase 1 (Homo sapiens); test: CTDSP1 inhibitors, concentration-response, biochemical, absorbance readout, ultra-high-throughput screen actives (AID 540297); assay type: functional
Sequence (Q9GZU7 whole entry, the tested form may be a part): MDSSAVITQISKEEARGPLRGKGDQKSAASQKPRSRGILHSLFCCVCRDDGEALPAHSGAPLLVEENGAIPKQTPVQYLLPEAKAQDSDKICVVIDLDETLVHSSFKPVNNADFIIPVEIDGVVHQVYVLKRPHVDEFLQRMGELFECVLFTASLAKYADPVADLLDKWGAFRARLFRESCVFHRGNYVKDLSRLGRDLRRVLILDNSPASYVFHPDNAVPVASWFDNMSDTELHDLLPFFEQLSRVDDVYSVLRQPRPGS
The source made the active and inactive calls.

Consider the reported IC50 for these molecules:
C[N+]1(CC2COC3(CCCCC3)O2)CCCCC1 (stereo not given) ... 8.39 µM (active)
C=Cc1ccc(C(=O)N2CCCC(CCC(=O)N3CCN(c4ccccn4)CC3)C2)cc1 (stereo not given) ... 22.2 µM (active)
CCOC(=O)c1sc2nc3c(SCC(=O)O)cc(C(=O)c4ccccc4O)cn3c(=O)c2c1C ... 14.8 µM (active)
CCN(CC)C(=O)CSc1ncnc2c(-c3cccs3)nsc12 ... 3.16 µM (active)

Now look at this entry.
Item Cc1c(CC(=O)NCCCCCC(=O)O)c(=O)oc2c(C)c3oc4c(c3cc12)CCCC4 with Carboxy-terminal domain RNA polymerase II polypeptide A small phosphatase 1 (Homo sapiens) - IC50? 4.72 µM (active)

---

molecular target: UniProtKB Q9H0H5; assay: blockers of MgcRacGAP-driven Rac1 GTP hydrolysis – biochemical, ADP Hunter fluorescence, primary and confirmatory, confirmation (AID 624330); assay type: functional
Sequence (Q9H0H5 whole entry): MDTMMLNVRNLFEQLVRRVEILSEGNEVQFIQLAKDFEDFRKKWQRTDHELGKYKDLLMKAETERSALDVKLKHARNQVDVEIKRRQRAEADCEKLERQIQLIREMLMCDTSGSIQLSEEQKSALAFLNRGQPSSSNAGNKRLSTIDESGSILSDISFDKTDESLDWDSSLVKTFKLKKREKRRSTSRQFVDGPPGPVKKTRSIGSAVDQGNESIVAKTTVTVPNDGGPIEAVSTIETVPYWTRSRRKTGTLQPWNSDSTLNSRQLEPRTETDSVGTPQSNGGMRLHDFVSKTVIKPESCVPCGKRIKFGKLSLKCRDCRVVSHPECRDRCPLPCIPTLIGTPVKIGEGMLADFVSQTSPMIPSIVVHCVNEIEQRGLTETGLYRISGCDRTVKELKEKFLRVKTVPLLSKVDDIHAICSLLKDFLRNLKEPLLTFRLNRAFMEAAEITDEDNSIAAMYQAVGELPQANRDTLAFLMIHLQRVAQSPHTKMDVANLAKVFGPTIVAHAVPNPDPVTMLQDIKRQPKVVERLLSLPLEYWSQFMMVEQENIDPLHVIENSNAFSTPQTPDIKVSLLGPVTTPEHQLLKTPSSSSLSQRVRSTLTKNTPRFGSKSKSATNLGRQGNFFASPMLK
Active and inactive are the calls of the source.
MEASUREMENT KIND: IC50

Item C=CCOc1ccccc1CN1CCCN(C)CC1 with UniProtKB Q9H0H5 - IC50? 178 µM (active)

Item Clc1cccc(N/N=C/c2ccc(N3CCOCC3)s2)c1 with UniProtKB Q9H0H5 - IC50? 71.3 µM (active)

Item COc1cc(/C=C/C(=O)OCC(=O)NC(=O)NC(C)(C)C)ccc1O with UniProtKB Q9H0H5 - IC50? 57.5 µM (active)

Item COc1ccc(CN2CCC(N(CCc3ccccc3)Cc3ccccc3)CC2)c(OC)c1 with UniProtKB Q9H0H5 - IC50? 96.6 µM (active)

---

target: FAD-linked sulfhydryl oxidase ALR (Homo sapiens, UniProt P55789); experiment: ALR-catalysed DTT oxidation blockers – biochemical, H2O2 detection, luminescence, cherry-pick, dose response (AID 493248)
Sequence (P55789 whole entry): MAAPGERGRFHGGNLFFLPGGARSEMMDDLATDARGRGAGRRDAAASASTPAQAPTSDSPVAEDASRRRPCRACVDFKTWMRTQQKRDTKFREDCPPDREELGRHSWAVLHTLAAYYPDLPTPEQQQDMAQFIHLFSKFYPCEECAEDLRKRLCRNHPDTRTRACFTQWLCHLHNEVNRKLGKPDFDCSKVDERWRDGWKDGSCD
Active and inactive are the calls of the source.
MEASUREMENT KIND: AC50

O=C(NCCCn1ccnc1)C(=O)NCC(c1ccco1)N1CCN(c2ccccc2)CC1 (configuration not stated) ... 3740 nM (active)

Data request, read-out AC50, for Cc1ccc(-c2csc(N=C(N)N)n2)cc1 1050 nM (active)

Recorded values, source ChEMBL document CHEMBL1201862.
